B1: LPCAT4 (parent)
chain: HDPLYGKLFSTYLRPPHTSRGTSQ

# Variants of: B1
# PROCEDURE_DETAILS: protein stability index of a GFP-peptide fusion (GPS, HEK-293T) (PSI 1-6); higher = more stable;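 also: lentivirally expressed fusions sorted by FACS into six bins by GFP to DsRed ratio, PSI derived from sequencing read proportions per bin multiplied by bin number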
# EXPERIMENTAL_CONTEXT: c terminus: a fixed tail appended
In this section we review reported protein stability index values for a set of variants.
Respond numerically, and do not add a unit to the figure.

Noted for `T11I` : its protein stability index reads 2.46
